- Assay Info: Sensory evaluation of aqueous solution I containing (E)-2-nonenal 1 ppb: off-flavor intensity and masking component intensity
- Condition Description: 10 ppb added, (E)-2-nonenal 1 ppb, average score 0-4
Label true (1) when Off-Flavor Intensity is at or above 2 points; otherwise label false (0).

* CC(=O)/C=C/C1C(C)=CCCC1(C)C (stereo not drawn) | false (0)
* C=CC(C)(CCC=C(C)C)OC(=O)CCC (stereo not drawn) [Linalyl Butyrate, linalyl butyrate] | true (1)
* C=C(C)[C@@H]1CCC2=CC(=O)C[C@@H](C)[C@]2(C)C1 | true (1)
* O=C1CCCCCCCCCCCC(=O)OCCO1 | false (0)
* C/C=C/C(=O)C1=C(C)C=CCC1(C)C | false (0)
* CCCC(=O)C(C)=O | true (1)
* CCC(=O)/C=C/C1C(C)=CCCC1(C)C (stereo not drawn) | false (0)
* CCCCCCCC/C=C\CCCCCCCC(=O)O | true (1)
* CC(=O)/C=C/C1=C(C)CCCC1(C)C | false (0)
